Provenance of the data: ChEMBL document CHEMBL1142672

List of Ki values.
Biological target: 3',5'-cyclic-AMP phosphodiesterase 4B (Homo sapiens, UniProt Q07343)
Sequence (Q07343 whole entry): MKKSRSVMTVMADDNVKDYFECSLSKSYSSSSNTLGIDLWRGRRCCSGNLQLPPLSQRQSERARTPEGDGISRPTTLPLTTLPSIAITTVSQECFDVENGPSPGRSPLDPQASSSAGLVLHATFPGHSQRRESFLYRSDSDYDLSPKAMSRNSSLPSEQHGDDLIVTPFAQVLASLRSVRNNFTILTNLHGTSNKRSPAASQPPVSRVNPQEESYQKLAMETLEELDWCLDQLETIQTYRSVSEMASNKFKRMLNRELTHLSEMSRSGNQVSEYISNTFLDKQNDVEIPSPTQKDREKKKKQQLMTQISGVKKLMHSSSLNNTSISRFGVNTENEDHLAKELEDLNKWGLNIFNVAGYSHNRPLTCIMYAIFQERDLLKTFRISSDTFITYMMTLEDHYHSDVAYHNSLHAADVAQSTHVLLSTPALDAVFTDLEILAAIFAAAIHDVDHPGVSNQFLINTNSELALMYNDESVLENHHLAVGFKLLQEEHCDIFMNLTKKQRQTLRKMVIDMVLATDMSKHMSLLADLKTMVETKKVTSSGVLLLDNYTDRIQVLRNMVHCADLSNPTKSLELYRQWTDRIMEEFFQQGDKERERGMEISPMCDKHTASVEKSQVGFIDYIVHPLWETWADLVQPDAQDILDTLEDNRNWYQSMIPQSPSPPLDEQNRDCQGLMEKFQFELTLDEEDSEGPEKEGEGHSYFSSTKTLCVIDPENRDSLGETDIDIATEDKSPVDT
Experiment: Inhibition of [3H]cAMP binding to recombinant human Phosphodiesterase 4BL (PDE4BL) in baculovirus expression system
The reply should contain only the number, in nM.

Below, 2 compounds whose answers are already recorded.
| compound_smiles | quantity_unit | Ki |
| --- | --- | --- |
| COc1cccc(OC[C@H](C)c2nc3c(N)ncn(Cc4ccc(OC)c(OC5CCCC5)c4)c-3n2)c1 | nM | 430 |
| COC(=O)c1ccc(OCC(C)(C)c2nc3c(N)ncn(Cc4ccc(OC)c(OC5CCCC5)c4)c-3n2)cc1 | nM | 5.2 |

Find the measured Ki of `CCNc1ncn(Cc2ccc(OC)c(OC3CCCC3)c2)c2nc(C(C)C)nc1-2` and report it.
270

Find the measured Ki of `COc1ccc(Cn2cnc(N)c3nc(C(C)(C)COc4ccc(C(N)=O)cc4)nc2-3)cc1OC1CCCC1` and report it.
7.6
